Attribution: patent US20160200799A1

# Neutralizing activity (%) at 250 µg/ml values compiled below
# TARGET_DESC: Influenza virus A/Indonesia/5/2005/PR8-IBCDC-RG2 (H5N1) (Influenza A virus A/Indonesia/5/2005/PR8-IBCDC-RG2 (H5N1))
# PROTOCOL_SUMMARY: cell-based or functional assay

{"BINDER": "Group 2 representative clone F082-220, Fab-PP-type antibody (Fab, V domains shown) VH: QVQLVQSGAEVKKPGSSVKVSCKASGGIFRSNAVSWVRQAPGQGLEWMGGIIAIFGTPKYAQKFQGRVTITADESTSTVYMELSGLRYEDTAVYYCARGPNYYESYFDYWGQGTLVTVSS VL: DIVMTQSPPSLSASVGDRVTITCRASQGISNYLAWYQQKPGKAPKLLIFGASTLHSGVSSRFSGSGSGPDFTLTISSLQPEDAATYYCQKYHSAPLTFGGGTKVEMK", "U": "%", "Neutralizing activity (%) at 250 µg/ml": 97.1}
{"BINDER": "Group 38 representative clone F082-338, Fab-PP-type antibody (Fab, V domains shown) VH: QVQLQESGAEVKKPGSSVKVSCKASGGPFRSHAISWVRQAAGQGLEWMGGITAVFGTANYAQKFQGRVTITADESTNIVSMELSSLRSEDTAIYYCARSLGYHTQYNGMDVWGQGTTVTVSS VL: DVVMTQSPSSVSASVGDRVTITCRASQGISSWLAWYQQKPGKAPKLLIYAASSLQSGVPSRFSGSGSGTDFTLTISSLQPEDFATYYCQQANSFPITFGQGTRLEIK", "U": "%", "Neutralizing activity (%) at 250 µg/ml": 85.3}
{"BINDER": "Group 56 representative clone F083-318, Fab-PP-type antibody (Fab, V domains shown) VH: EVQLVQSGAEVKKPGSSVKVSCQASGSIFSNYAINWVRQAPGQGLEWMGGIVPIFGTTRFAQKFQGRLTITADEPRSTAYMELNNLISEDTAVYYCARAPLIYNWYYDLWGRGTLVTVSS VL: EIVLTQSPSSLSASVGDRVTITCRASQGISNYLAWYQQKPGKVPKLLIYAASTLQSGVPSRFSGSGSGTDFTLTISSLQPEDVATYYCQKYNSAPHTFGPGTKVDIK", "U": "%", "Neutralizing activity (%) at 250 µg/ml": 1.7}
